Assay: recombinant barcode read abundance after kanamycin selection (control-corrected) (log10(CPM+1)); higher = more efficient recombination; sequences stand for … in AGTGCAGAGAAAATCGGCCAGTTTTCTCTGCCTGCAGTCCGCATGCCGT…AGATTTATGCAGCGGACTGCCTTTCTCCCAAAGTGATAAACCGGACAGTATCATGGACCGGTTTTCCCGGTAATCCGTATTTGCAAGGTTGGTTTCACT; site = the 11-nt target
Okay, here is how we bin by recombinant barcode read abundance (log10): low class: < 0.07; middle class: ≥ 0.07 and < 0.2; high class: ≥ 0.2

TCCACAGCTTGGGTTCTAACCTGTTGCCT (site TCCACATCTAG) :: low class
AAGCACTCTTGGGTTCTAACCTGTTGCCT (site AAGCAGTCTAG) :: middle class
TCAAACCCTTGGGTTCTAACCTGTTGCGG (site TCGAACCCTCC) :: low class
CCTAGAGCTTGGGTTCTAACCTGTTGCCT (site CCTAGAGCTAG) :: high class
CACCGAGCTTGGGTTCTAACCTGTTGCCG (site CAGCGAGCTCG) :: high class
TTGCATCCTTGGGTTCTAACCTGTTGCAG (site CGTTGGTCTTC) :: low class
CGAGCTCCTTGGGTTCTAACCTGTTGCAT (site CGAGCTCCTAA) :: low class
TAGCCTTCTTGGGTTCTAACCTGTTGCCT (site TGGCCTTCTAG) :: low class
AGGTCACCTTGGGTTCTAACCTGTTGCTT (site AGGTCACCTAT) :: high class
ATCATTCCTTGGGTTCTAACCTGTTGCCT (site AACATACCTAG) :: high class
CCAAGGCCTTGGGTTCTAACCTGTTGCCT (site ACAAGGCCTAG) :: middle class
TAGCGGTCTTGGGTTCTAACCTGTTGCCT (site TAGCGGACTAT) :: middle class
CGGCGTACTTGGGTTCTAACCTGTTGCCT (site CGCCGTACTAG) :: middle class

* * *

Test: recombinant UMI read abundance after kanamycin selection (control-corrected) (log10(CPM+1)); higher = more efficient recombination; extreme values may be limits of the assay; sequences stand for … in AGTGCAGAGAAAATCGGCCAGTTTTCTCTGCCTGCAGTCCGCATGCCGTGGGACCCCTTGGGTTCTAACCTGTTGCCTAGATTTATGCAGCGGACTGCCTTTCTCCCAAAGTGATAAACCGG…AGGTTGGTTTCACT; site = the 11-nt donor
Okay, here is how we bin by recombinant UMI read abundance (log10): range 1: < 0.01; range 2: ≥ 0.01 and < 0.5; range 3: ≥ 0.5

TATTACACATGGACCGGTTTTCCCGGTAATCCGTATTTGCC (site TATTACACTGG) :: range 3
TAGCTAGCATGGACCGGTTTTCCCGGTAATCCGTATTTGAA (site TAGCTGGCTTT) :: range 2
GCAGGTGCATGGACCGGTTTTCCCGGTAATCCGTATTTGAT (site TCAGGTGCTAT) :: range 3
CGATCGACATGGACCGGTTTTCCCGGTAATCCGTATTTGTG (site CGATCGACTGA) :: range 1
ACCTAGACATGGACCGGTTTTCCCGGTAATCCGTATTTGGT (site ACCTAGACTTC) :: range 2
TCTGAGCCATGGACCGGTTTTCCCGGTAATCCGTATTTGTT (site TCTGAGCCTAA) :: range 2
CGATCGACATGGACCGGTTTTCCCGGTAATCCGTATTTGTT (site CGAACGACTAA) :: range 2
GGCTTCCCATGGACCGGTTTTCCCGGTAATCCGTATTTGTC (site GGCTTCCCTGA) :: range 1
ATCTACACATGGACCGGTTTTCCCGGTAATCCGTATTTGCT (site CTCTACACTAG) :: range 3
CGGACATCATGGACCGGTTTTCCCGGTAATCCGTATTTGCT (site CGGAAATCTAG) :: range 1
GGTAGCGCATGGACCGGTTTTCCCGGTAATCCGTATTTGTT (site GGTAGCGCTAA) :: range 3
TACTCTCCATGGACCGGTTTTCCCGGTAATCCGTATTTGTG (site TACTCTCCTCA) :: range 2
